Hey, just so you know, these numbers are from the supplement of paper PMC10065799.

- system.name: c-Src SH2
- method.summary: SH2 binding enrichment of the phosphorylated peptide, bacterial display (enrichment ratio); higher = better substrate or ligand; peptides without Tyr show the background
I'd be grateful if you could share measured SH2 binding enrichment for these entries.
One number for each entry.

sequence_data="LEIETYRRLRD [KRT12_Y429_L433R]" system_name="c-Src SH2" observed=0.471

# per-item lookup of SH2 binding enrichment; items listed below
1. SGSWSYNTSTE [SELE_Y24_A21S]
2. PSELYYSKIGP [SMG1_Y2254]

RESULT:
0.55
5.62

====

I'd be grateful if you could share measured phosphorylation enrichment for these entries.
- system.name: Fyn (UniProt P06241)
- Sequence (P06241 whole entry, looked up): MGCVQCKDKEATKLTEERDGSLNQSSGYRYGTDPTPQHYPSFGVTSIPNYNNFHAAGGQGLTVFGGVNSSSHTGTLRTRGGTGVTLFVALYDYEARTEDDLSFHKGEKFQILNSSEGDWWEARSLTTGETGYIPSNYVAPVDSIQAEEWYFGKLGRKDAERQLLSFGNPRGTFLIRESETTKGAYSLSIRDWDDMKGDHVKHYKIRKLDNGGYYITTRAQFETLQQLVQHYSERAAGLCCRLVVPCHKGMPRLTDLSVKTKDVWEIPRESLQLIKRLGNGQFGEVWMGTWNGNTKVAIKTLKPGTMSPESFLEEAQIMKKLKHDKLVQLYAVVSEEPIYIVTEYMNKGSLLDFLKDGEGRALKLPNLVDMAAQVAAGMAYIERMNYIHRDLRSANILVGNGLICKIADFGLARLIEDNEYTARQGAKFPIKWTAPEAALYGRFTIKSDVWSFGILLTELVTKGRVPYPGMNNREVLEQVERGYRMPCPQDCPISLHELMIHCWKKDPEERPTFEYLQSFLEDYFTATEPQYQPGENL
- method.summary: phosphorylation enrichment, bacterial display (enrichment ratio); higher = better substrate or ligand; peptides without Tyr show the background

sequence_data="VNKGGYFSVNL [C3orf33_Y164_S160N]" system_name="Fyn (UniProt P06241)" observed=0.456
sequence_data="KTDKKYLMIKE [BAG3_Y451_E455K]" system_name="Fyn (UniProt P06241)" observed=0.368
sequence_data="GKGGSYSKAES [HLA-E_Y341_W346S]" system_name="Fyn (UniProt P06241)" observed=0.375
sequence_data="PRNLIYFGEHP [TRPV6_Y201_C197R]" system_name="Fyn (UniProt P06241)" observed=0.738
sequence_data="VSSSDYFSFVL [USP24_Y2138_Y2134S]" system_name="Fyn (UniProt P06241)" observed=5.34
sequence_data="FDDDDYDTDFV [BLM_Y296]" system_name="Fyn (UniProt P06241)" observed=0.563

# per-item lookup of phosphorylation enrichment; items listed below
1. LKGQVYILVRE [ASS1_Y359_G362V]
2. KNKNRCKNILP [PTPN11_Y279_Y279C]
3. DGLALYTGSAL [COL6A3_Y524_S521L]
4. IVEYAYNDKAV [PUM3_Y259_I264V]
5. SPFMLYQFLKQ [RPAP3_Y567_D564Y_YF]
6. CSHMFYGKQCC [ADAMTS16_Y1211_K1209M]
7. QFLMKYVRSAS [ABCD1_Y337_W339R]

RESULT:
[0.343, 0.374, 0.614, 0.418, 0.621, 0.653, 0.605]

====

- System: AncSZ
- method.summary: phosphorylation enrichment, bacterial display (enrichment ratio); higher = better substrate or ligand; peptides without Tyr show the background
I'd be grateful if you could share measured phosphorylation enrichment for these entries.

# per-item lookup of phosphorylation enrichment; items listed below
1. FPILNYKDIRK [CFAP221_Y798_M795I]
2. IVEYAYNDKAV [PUM3_Y259_I264V]
3. QLQQAYQEAFE [YWHAZ_Y149_S145L]
4. AGLEEYSAMRD [HRAS_Y64_Q61L]
5. DEDEEYEYMNR [ERBB3_Y1197]

RESULT:
1. 0.546
2. 0.989
3. 2.59
4. 0.952
5. 1.38

# per-item lookup of phosphorylation enrichment; items listed below
1. TDLAFYLVCKG [ASL_Y376_R379C_YF]
2. SVVVPYEPTEV [TP53_Y220_P223T]
3. YGGLRYGYGVL [KRTAP20-2_Y13]
4. LKKLEYLNLAL [LRRC6_Y70]
5. YAKSVYWENTL [NUP107_Y296]
6. FIGVTYKNEED [PDGFRA_Y993_YF]
7. TEALYYTDDPA [ADPRS_Y75_T79P]
8. MDQAEYQAKIQ [DHX58_Y518_R523Q]

RESULT:
[1.31, 0.992, 0.671, 1.05, 1.02, 1.02, 1.97, 0.99]

# per-item lookup of phosphorylation enrichment; items listed below
1. KVPELYEIHKE [BCR_Y554]
2. ASTDYNKRGDF [PDHA1_Y243_Y243N]

RESULT:
[1.03, 0.502]

# per-item lookup of phosphorylation enrichment; items listed below
1. MEIHAYLKLLE [LMNA_Y376_R377L]
2. PFRSIYFSSPK [MPG_Y75_YF]
3. LYSINYLHFGD [KDM4C_Y201_E206D]
4. YQSKHYACIRQ [TIMP3_Y182]
5. NHYKIYNLYAE [PTEN_Y68_C71Y]

RESULT:
1. 1.33
2. 0.851
3. 1.99
4. 0.673
5. 0.749

====

I'd be grateful if you could share measured SH2 binding enrichment for these entries.
- system.name: Grb2 SH2 (UniProt P62993)
- Sequence (P62993 whole entry, looked up): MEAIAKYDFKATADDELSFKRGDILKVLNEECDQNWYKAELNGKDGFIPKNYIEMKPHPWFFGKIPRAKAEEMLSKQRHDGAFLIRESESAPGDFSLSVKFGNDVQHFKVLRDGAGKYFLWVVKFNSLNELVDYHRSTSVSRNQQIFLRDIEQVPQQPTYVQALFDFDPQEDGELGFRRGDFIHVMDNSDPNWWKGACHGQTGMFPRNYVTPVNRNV
- method.summary: SH2 binding enrichment of the phosphorylated peptide, bacterial display (enrichment ratio); higher = better substrate or ligand; peptides without Tyr show the background
Answers are plain numbers.

Previously resolved entries follow.
sequence_data="RRVLVYVGRGA [QDPR_Y16_G17V]" measured_attribute="SH2 binding enrichment" observed=0.657
sequence_data="LSALDYKIFFF [WDPCP_Y210_YF]" measured_attribute="SH2 binding enrichment" observed=0.84
sequence_data="FTYDPYSEEDP [IL2RB_Y387]" measured_attribute="SH2 binding enrichment" observed=0.851
sequence_data="STQAHYRLSAF [ADAMTS9_Y100_S96T]" measured_attribute="SH2 binding enrichment" observed=0.759
sequence_data="LWPIWYRCHRP [MRGPRX1_Y130]" measured_attribute="SH2 binding enrichment" observed=1.09
sequence_data="PEADKYRLTFA [FGG_Y300_YF]" measured_attribute="SH2 binding enrichment" observed=0.75
sequence_data="LIDSSYLTRTA [GREB1L_Y1063]" measured_attribute="SH2 binding enrichment" observed=0.844
sequence_data="IFRAAYFGVFD [SLC25A4_Y191_YF]" measured_attribute="SH2 binding enrichment" observed=0.832
sequence_data="CTNIHYNFMCN [TP53_Y234_T231N_YF]" measured_attribute="SH2 binding enrichment" observed=1.62
sequence_data="QGLRLYRPHLP [BTK_Y617_A622P]" measured_attribute="SH2 binding enrichment" observed=0.816

# per-item lookup of SH2 binding enrichment; items listed below
1. RDSQIYAVDFE [MRPS34_Y34_L33I_YF]
2. PESTLYRKFTT [NTRK1_Y701_I699T]
3. MWGSDYVQLSR [MAP3K4_Y582]
4. MSNFACVKREV [SCN1A_Y1694_Y1694C]
5. EREFKYGAHNF [OAT_Y50_YF]
6. DVELLYPVKEK [EPHX1_Y283]
7. WPLKWYVPECI [ZAP70_Y506_A507V]

RESULT:
1: 0.88; 2: 0.879; 3: 0.646; 4: 0.88; 5: 0.893; 6: 0.73; 7: 0.841

====

- System: c-Src
- method.summary: phosphorylation enrichment, bacterial display (enrichment ratio); higher = better substrate or ligand; peptides without Tyr show the background
measured.attribute: phosphorylation enrichment
Numbers only.

sequence_data="MSNFACVKREV [SCN1A_Y1694_Y1694C]" observed=0.446
sequence_data="KTTGGYAGGLS [KRT8_Y419_S417G]" observed=0.583

# per-item lookup of phosphorylation enrichment; items listed below
1. RALRHYYKLNI [ETV6_Y401]
2. TEYSQYMRRKN [MAX_Y73_I71S]
3. RNDLDYMDSRR [GAA_Y407_W402R]
4. WEQELYSQLVY [WAS_Y102]
5. EREFKYGAHNF [OAT_Y50_YF]

RESULT:
0.201
0.523
0.555
7.33
0.388

# per-item lookup of phosphorylation enrichment; items listed below
1. VECRVYAEDPF [PCCA_Y401_YF]
2. PKEQKYSFLQD [GH1_Y68_N73D]

RESULT:
1: 0.693; 2: 0.628

# per-item lookup of phosphorylation enrichment; items listed below
1. HKGASYVFRLS [PTPRD_Y891]
2. RGDIFYTSKLW [AKR1C3_Y81_E77G]
3. ENGPYYASYPP [GDAP2_Y488_T489A]
4. QSSALYEDHYL [ASS1_Y83_R86H]
5. PADCRYYAFPQ [GAMT_Y222]

RESULT:
1: 0.583; 2: 0.735; 3: 5.28; 4: 1.14; 5: 4.71

# per-item lookup of phosphorylation enrichment; items listed below
1. VKYGAYINDFK [GLB1_Y488_N484K]
2. DPEATYTTSGG [EPHA2_Y772]
3. IKETHYMVDRC
4. SVIKEYQIRQV [USH2A_Y3623_G3618S]
5. GNHVSYYQSDG [CACNA1C_Y1757]
6. GIVKAYFVRAR [AIPL1_Y267_YF]

RESULT:
1. 0.566
2. 0.789
3. 0.464
4. 0.381
5. 0.574
6. 0.467

# per-item lookup of phosphorylation enrichment; items listed below
1. GHEYIYVDRMQ [PDGFRB_Y581_P584R]
2. RGLQVYHKRNA [LRP2_Y2010_R2012K]
3. SLQAHYDTPRS [DOK7_Y405_R402Q]
4. MKGDYYRYLAE [YWHAG_Y131]
5. STQAHYRLSAF [ADAMTS9_Y100_S96T]
6. HNQDGYSFLSR [LDLR_Y845_P848L_YF]
7. LLREWYLQDPF [SIX3_Y225_YF]

RESULT:
1. 2.62
2. 0.497
3. 0.368
4. 0.639
5. 0.323
6. 0.435
7. 0.788

# per-item lookup of phosphorylation enrichment; items listed below
1. TMEDSYRKQVV [KRAS_Y40_I36M]
2. TSAEGYQDVRD [ABLIM1_Y439_P434T]

RESULT:
0.38
0.602
